System: H3K4me3 in MV4-11 cells
Experiment: MV4-11 H3K4me3 Cellular ELISA Assay
Assay type: cell-based
Conditions: Homo sapiens, MV4-11, 48 h
pIC50: −log10 of the molar value.
pIC50: recorded values

>>> print(df.to_string())
                                   compound         value
0  Nc1ncnc2c1ncn2Cc1c(N2CC[C@](N)(c3ccccc3)C2)ccc(F)c1C(F)(F)F [Example 26]  5.52 to 5.72
1  Nc1ncnc2c1ncn2Cc1c(N2CC[C@](N)(C(=O)NC3CC3)C2)ccc(F)c1CN1CCC(F)CC1 [Example 56]        > 5.72
2  CCc1c(Cl)ccc(N2CC[C@](N)(C(=O)N3CCS(=O)(=O)CC3)C2)c1Cn1cnc2c(N)ncnc21 [Example 155]        > 5.72
3  Nc1ncnc2c1ncn2Cc1c(I)c(F)c2c(c1N1CC[C@](N)(C(=O)NC3CC3)C1)OCC2 [Example 111]  5.52 to 5.72
4  COc1ccc(Br)c(Cn2cnc3c(N)ncnc32)c1N1CC[C@](N)(C(=O)NC2CC2)C1 [Example 21]        < 5.52

Entry Nc1ncnc2c1ncn2Cc1c(N2CC[C@](N)(C(=O)NC3CC3)C2)ccc2cc(Br)ccc12 [Example 167] — recorded pIC50 = > 5.72

Nc1ncnc2c1ncn2Cc1c(Br)c(Cl)c(Cl)c(Cl)c1N1CCC(N)(C(=O)NC2CC2)C1 (stereo not shown) [Example 44] yielded pIC50 of > 5.72
